target: XIAP BIR3 (Homo sapiens (Human), UniProt P98170); assay: XIAP BIR3 Ki; assay type: binding; conditions: Table 2-2
Sequence (P98170 241-356): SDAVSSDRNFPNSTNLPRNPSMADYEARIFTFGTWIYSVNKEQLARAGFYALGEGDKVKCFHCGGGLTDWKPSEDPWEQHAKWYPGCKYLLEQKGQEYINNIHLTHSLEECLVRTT
Please respond with reported Ki for every item in the list.

Would you mind giving Ki for every molecule in the list below?
1. CN[C@@H](C)C(=O)N[C@H]1CCO[C@H]2CC(C)(C)C(C(=O)N[C@@H]3CCCc4ccccc43)N2C1=O (stereo partly drawn) [Product 17b]
2. CN[C@@H](C)C(=O)N[C@H]1CCO[C@H]2c3ccccc3C(C(=O)N[C@@H]3CCCc4ccccc43)N2C1=O (stereo partly drawn) [Product 17a]
3. CN[C@@H](C)C(=O)N[C@H]1CCS[C@H]2CC(C)(C)C(C(=O)N[C@@H]3CCCc4ccccc43)N2C1=O (stereo partly drawn) [Product 17c]

["< 25 µM", "< 25 µM", "< 25 µM"]
